Test system: EKVX
experiment description: NCI tumour cell line growth inhibition, 48 h
Calls of active or inactive are those of the source. Cut-off read from the data, not from the text of the source: active = GI50 up to about 1.1 µM and inactive = higher.
endpoint: GI50

COc1ccc(CC(C#N)c2cc(OC)c(OC)c(OC)c2)cc1 (stereo unspecified)	1.56 µM (inactive)
Cc1ccc(-c2cs/c(=N\c3ccccc3)n2NC(=O)c2ccncc2)cc1	37.3 µM (inactive)
OC(c1ccccc1Br)(c1ccccc1Br)C(F)(F)F	33.9 µM (inactive)
Cn1c2c(c3ccccc31)CCN(CCCCN1CCN(c3ccccc3)CC1)C2=O	> 38.5 µM (inactive)
COc1c(C(=O)/C(=N/Nc2cccc(Cl)c2)C(C)=O)c(O)c(OC)c2occc12	78.7 µM (inactive)
C[C@@H]1C[C@H](O)[C@]2(O)O[C@@H]3C[C@@]4(C=O)[C@@H](CC[C@@H]5[C@@H]4CC[C@]4(C)[C@@H](C6=CC(=O)OC6)CC[C@]54O)C[C@H]3O[C@@H]2O1	0.0178 µM (active)
OCC(O)C(OC1OC(CO)C(O)C(O)C1O)c1nn(-c2ccc(Cl)cc2)c2nc3cc(Cl)ccc3nc12 (stereo unspecified)	> 100 µM (inactive)
C=C[C@]1(C)CC(O)C2C(=C)C(=O)OC2[C@H]1C(=C)C=O (stereo partly specified)	15 µM (inactive)
CCOc1cc2c(=O)oc3c(OC)ccc4ccc(c1OC)c2c43	> 100 µM (inactive)
COc1cc([N+](=O)[O-])ccc1NC1=CC(=O)CCC1	> 100 µM (inactive)
c1csc(-c2sc(-c3ccsc3)cc2Cc2ccsc2)c1	> 10 µM (inactive)
C=C1C(=O)O[C@@]23C1CC[C@@H](C)C2CC[C@@]1(C)OC31 (stereo partly specified)	12.5 µM (inactive)
Cn1c(=S)c2nc(SCCCc3ccccc3)[nH]c2n(C)c1=O	13.7 µM (inactive)
COc1cc2c(c(OC)c1)[C@H](C)N(Cc1ccccc1)C(C)C2 (stereo partly specified)	> 100 µM (inactive)
O=c1[nH]c(NCc2cccnc2)nc2[nH]cnc12	> 100 µM (inactive)
O=C1c2ccccc2CC12Cc1cc3c(cc1C2)CCC3	99.3 µM (inactive)
CCOC(=O)C1=C(C)N(Cc2ccccc2)C(=O)C1CC#N (stereo unspecified)	> 100 µM (inactive)
CCc1cccc(C)c1NC(=O)CC1C(=O)Nc2ccccc2S1(=O)=O (stereo unspecified)	15.5 µM (inactive)
CCSC1=N/C(=C/c2ccccc2O)C(=O)N1	> 100 µM (inactive)
CC(=O)N(C(C)=O)c1c(N)n(C)c(=O)[nH]c1=O	> 100 µM (inactive)
CC(C)c1ccc2nc3ccc(C(=O)NCCN4CCN(c5ccccc5)CC4)cn3c(=O)c2c1	> 100 µM (inactive)
